Provide the recorded composite z-score for the entries that follow.
- Test system: Inhibin beta A chain (activin A)
- procedure-text: INHBA (activin A) binders on microarrays, primary screen, biochemical, small-molecule microarray, 635 nm fluorescence scan (AID 1107);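 note: mouse activin A protein probed at 4.33 µg/mL on printed slides; score merges bound-protein fluorescence near 667 nm with spot signal-to-noise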
- condition-parameters: small-molecule microarray binding, higher = more signal
Respond with the number and no other words.

Return reported composite z-score. Input molecule: O=C1C2C=CC(C(O)Cc3ccccc3)N(Nc3ccc([N+](=O)[O-])cc3)C2C(=O)N1c1ccccc1 (centres undefined) 0.582

Return composite z-score (reported value) for this molecule: Cc1ccccc1C(O)C1C=CC2C(=O)N(c3ccccc3)C(=O)C2N1Nc1ccc(C#N)cc1 (centres undefined) 0.958

Tell me composite z-score reported for COC(=O)c1ccc(C#CC(NP(=O)(c2ccccc2)c2ccccc2)c2ccccc2)cc1 (centres undefined) 1.76

Quote composite z-score reported for `C=C(CCCC)/C(=C/C[C@@H](OC(=O)c1ccncc1)c1ccc(CO)o1)c1cnc2ccccc2c1` please. 1.82

Provide only the value of recorded composite z-score for `O=C1O[C@@H](c2ccccc2)[C@@H](c2ccccc2)N2[C@@H](c3ccc(OCCO)cc3)[C@]3(C(=O)Nc4ccc(C#CCCO)cc43)[C@@H](C(=O)N3CCN(c4ncccn4)CC3)[C@H]12` 0.666

Determine its reported composite z-score: `C=CC[C@]1(C(=O)N2CCCCC2)N=C(c2ccc(OCCCO)cc2)O[C@H]1c1ccccc1N=[N+]=[N-]` 1.06

Quickly give me recorded composite z-score for `O=C1O[C@@H](c2ccccc2)[C@@H](c2ccccc2)N2[C@@H](c3ccccc3OCCO)[C@]3(C(=O)Nc4ccc(C#CC5=CCCCC5)cc43)[C@@H](C(=O)O)[C@H]12` 1.09

Output measured composite z-score for this item: `C=C(/C(=C/C[C@@H](OC(=O)c1ccncc1)c1ccc(CO)o1)c1cnc2ccccc2c1)C(C)C` 1.58

Tell me its composite z-score given `O=C(CS)NCCCCCNC(=O)[C@H]1C[C@H]2C(=O)N[C@@H](Cc3ccccc3)C(=O)N2[C@H]1c1ccc(O)cc1` as the entry. 0.456

Indicate its recorded composite z-score; the molecule in question is `C=CCOC(=O)[C@@H]1[C@H]2C(=O)O[C@H](c3ccccc3)[C@H](c3ccccc3)N2[C@H](c2ccc(OCCOC(=O)[C@H]3C[C@H]4C(=O)N5CCC[C@H]5C(=O)N4[C@H]3c3ccc(O)cc3)cc2)[C@@]12C(=O)Nc1ccccc12` 0.668

For the molecule `CO[C@@H]1COC(=O)[C@H](C)NC(=O)CC=C[C@@H](C)[C@H](OC)COC(=O)[C@H](C)NC(=O)CC=C[C@H]1C` , give its reported composite z-score. 0.136

Determine from records and report composite z-score for `C=CC[C@]1(C(N)=O)N=C(c2ccc(OCCCO)cc2)O[C@H]1c1ccccc1CN=[N+]=[N-]` 1.46

Item `C=CC[C@]1(C(=O)O)N=C(c2ccc(OCCCO)cc2)O[C@H]1c1ccccc1` : provide composite z-score 0.654

Return composite z-score (reported value) for this molecule: `CCOC(=O)C[C@H]1[C@H](OC(=O)c2cc3ccccc3oc2=O)[C@@H](NC(=O)c2ccc3ccccc3c2)c2cc(OCCCO)ccc2N1C(=O)c1ccc2ccccc2n1` 0.392

----------
- measurement-target: Fibroblast growth factor 2 (Homo sapiens)
- procedure-text: FGF2 binders on small-molecule microarrays, primary screen, biochemical, small-molecule microarray, 635/667 nm fluorescence (AID 1133)
- condition-parameters: small-molecule microarray binding, FGF2, fluorescence 635/667; higher = more signal
reported-property: composite z-score
A bare number is all that is needed in reply.

Name the recorded composite z-score of the item `CCOC(=O)C[C@H]1[C@H](OC(=O)Cc2ccc3c(c2)OCO3)[C@@H](NC(=O)c2ccc3ccccc3c2)c2cc(OCCCO)ccc2N1C(=O)Cc1ccc(OC)cc1` in your answer. 0.441

Hello, please tell me recorded composite z-score for this one: C=CCC(OC(C)=O)[C@@H]1[C@@H](N(Cc2ccc(-c3ccccc3)cc2)C(=O)c2ccc(C)cc2)c2cc(OCCCO)ccc2N1C(=O)c1ccc(-c2ccccc2)cc1 (stereo partly specified) 0.0217

Supply measured composite z-score of `CC/C=C/C(=O)N(C[C@@H]1CCCO1)[C@@H]1CC(C(=O)NCCO)=C[C@H](Oc2c(I)cc(CO)cc2OC)[C@H]1O` in your reply. -0.273

Answer with the recorded composite z-score for the compound listed here: `CCOC(=O)[C@H]1C/C=C/C[C@H](C(=O)OCC)C(=O)O[C@H]2[C@@H](OC)O[C@H](CO)[C@@H](OC(=O)Nc3ccc(Br)cc3)[C@@H]2OC1=O` 0.376

State its composite z-score for this compound: `C=CCNC(=O)[C@H]1[C@@H]2C(=O)O[C@@H](c3ccccc3)[C@@H](c3ccccc3)N2[C@@H](c2ccccc2OCCO)[C@]12C(=O)N(C(=O)OCCOC)c1ccc(C#CCNC(N)=O)cc12` 0.104

Supply recorded composite z-score for `C=CCN1C(=O)[C@]2(O[C@H](CCn3cc(CCO)nn3)[C@@H]([Si](C)(C)c3ccc(OC)cc3)[C@@H]2C)c2cc(NC(=O)c3ccc(OC)cc3)ccc21` here. 1.2

----------
Kindly state z-score for each of the entries shown.
- procedure-text: basal S. cerevisiae growth modulation, no modifier, primary screen, OD600, strain BY4716, 24 h, basal condition (AID 1173)
- condition-parameters: OD600, 24 h, higher = more signal, called active from +8 up or from −8 down
// response body must contain only the number

Provide only the value of recorded z-score for C[C@H]1NC(=O)[C@@H](C)NC(=O)[C@@]23C(=O)N[C@@H](Cc4ccccc4)C2[C@H](C)[C@@]2(C)O[C@H]2C3/C=C/C/C=C\CNC1=O (stereo partly drawn) -0.811

Please indicate z-score recorded for CC1CC/C=C\[C@H]2OC34C=CCN(Cn5nnc6ccccc65)C(=O)[C@H]3N(C(C)CO)C(=O)[C@@H]4C2C(=O)O1 (stereo partly drawn) -0.0496

Read the entry `COCCOC(=O)N1C(=O)[C@@]2(c3cc(C#CC4=CCCCC4)ccc31)[C@H](c1ccc(O)cc1)N1[C@H](c3ccccc3)[C@H](c3ccccc3)OC(=O)[C@H]1[C@@H]2C(=O)N1CCCCCCC1` and write its reported z-score. -0.615

----------
- procedure-text: PSAC antagonists in infected red cells, primary screen, cell-based, P. falciparum Indochina, OD700, 2 h (AID 1155);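 note: lysis reports solute entry through the parasite surface anion channel PSAC; channel blockers reduce lysis of infected cells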
- condition-parameters: P. falciparum Indochina infected erythrocytes, osmotic lysis OD700; higher = more signal, called active from +8 up or from −8 down
Please go through the items and note down their z-score.
No unit in the answer, only the number.

Determine from records and report z-score for `CC(C)[Si](OCCCNS(=O)(=O)c1ccc(Br)cc1)(C(C)C)C(C)C` 0.0808

Consider the molecule `C[C@H]1COC(=O)[C@@H]2CCCN2C(=O)[C@@H](C)COC(=O)[C@@H]2CCCN2C1=O` and give its recorded z-score. 0.0593

Using known records, supply z-score for `C=CCc1cccc([C@H]2N[C@H](C(=O)O)CC[C@@H]2C)c1` 1.15

Look up z-score of `CCOC(=O)C[C@H]1[C@H](OC(=O)c2cc3ccccc3oc2=O)[C@@H](NC(=O)c2ccc3ccccc3c2)c2cc(OCCCO)ccc2N1C(=O)c1ccc2ccccc2n1` and report it. 1.42

Read the entry `CCCC/C=C/[C@H]([C@@H](O)Cc1ccccc1)N(CC#Cc1ccccc1)Cc1ccccc1Br` and write its reported z-score. 1.29

Assign z-score to the following record: `CO[C@@H]1COC(=O)[C@H](C)NC(=O)CC=C[C@@H](C)[C@H](NS(=O)(=O)c2ccc(C)cc2)COC(=O)CC=C[C@@H]1C` -0.207

Give the measured z-score for N#Cc1ccc(NN2C(C(O)c3ccc(I)cc3)C=CC3C(=O)N(c4ccccc4)C(=O)C32)cc1 (centres undefined) 3.64

Please report z-score for the following molecule: `C#C[C@H](O[Si](C#Cc1ccccc1)(C(C)C)C(C)C)c1ccccc1` 0.924

Provide one value: measured z-score of `COCCOC(=O)N1C(=O)[C@@]2(c3cc(C#CCNC(N)=O)ccc31)[C@H](c1ccc(OCCO)cc1)N1[C@H](c3ccccc3)[C@H](c3ccccc3)OC(=O)[C@H]1[C@@H]2C(=O)Nc1nc2ccccc2s1` 1.67

Give me measured z-score, please, for this molecule: `COCCOC(=O)N1C(=O)[C@@]2(c3cc(C#CC4=CCCCC4)ccc31)[C@H](c1ccc(O)cc1)N1[C@H](c3ccccc3)[C@H](c3ccccc3)OC(=O)[C@H]1[C@@H]2C(=O)N1CCCCCCC1` -0.321

Give me measured z-score, please, for this molecule: `CO[C@@H]1COC(=O)[C@H](C)NC(=O)CC=C[C@@H](C)[C@H](OC)COC(=O)[C@H](C)NC(=O)CC=C[C@H]1C` 0.551

Answer with reported z-score of `C=C(CCCC)/C(=C/C[C@@H](OC(=O)c1ccncc1)c1cccc(OCCO)c1)c1cc(C(=O)OC)ccc1OC` 3.89

Return the recorded z-score value; entry: `COc1cc(CO)cc(I)c1O[C@H]1C=C(C(=O)NCCO)C[C@@H](N(CC2CCCCC2)C(=O)c2cc3ccccc3oc2=O)[C@@H]1O` 0.718

Using known records, supply z-score for `CO[C@H]1O[C@H](CO)[C@@H](OC(=O)CCc2ccccc2)[C@@H]2OC(=O)[C@H](Cc3cccc(Br)c3)C/C=C/C[C@@H](Cc3cccc(Br)c3)C(=O)O[C@@H]12` -0.807

Source listed as PubChem BioAssay.
